- Assay overview: Half life in Han Wistar rat at 1 mg/kg, iv
- Type: ADME, organism-based
- Measurement setup: in vivo
Reported property: half-life (h)
Provide the reading as a plain figure in h.

# half-life (molecule: O=C(NC[C@@H]1[C@H]2CN(C(=O)OCc3cc(C(F)(F)F)cc(C(F)(F)F)c3)C[C@@H]12)c1ccc2[nH]nnc2c1 [BI 2545] ) is 1.8

###

- Assay overview: in vitro
- Measurement setup: rat, liver microsomes
- Description: Clearance in rat liver microsomes at 1 uM in presence of NADPH by LC-MS/MS analysis relative to hepatic blood flow
Items are presented alongside their recorded hepatic extraction ratio at 1 µM.
API doc: respond with a numeric literal and nothing else, no unit.

| Smiles data | hepatic extraction ratio at 1 µM |
| --- | --- |
| O=C(NC[C@@H]1[C@H]2CN(C(=O)N3CCc4c(Cl)cc(Cl)cc4C3)C[C@@H]12)c1ccc2[nH]c(=O)oc2c1 | 0.53 |
| N#Cc1cc(COC(=O)N2C[C@@H]3[C@@H](CNC(=O)N4CCc5[nH]nnc5C4)[C@@H]3C2)cc(C(=O)OC(F)(F)F)c1 | 0.43 |
| O=C(NC[C@@H]1[C@H]2CN(C(=O)CCc3cc(Cl)cc(Cl)c3)C[C@@H]12)c1ccc2[nH]c(=O)oc2c1 | 0.88 |
| N#Cc1cc(COC(=O)N2C[C@@H]3[C@@H](CNC(=O)c4ccc5[nH]c(=O)oc5c4)[C@@H]3C2)cc(OC(F)(F)F)c1 | 0.56 |
| O=C(NC[C@@H]1[C@H]2CN(C(=O)NCc3cc(Cl)cc(Cl)c3)C[C@@H]12)c1ccc2[nH]c(=O)oc2c1 | 0.35 |

# hepatic extraction ratio at 1 µM (compound: O=C(NC[C@@H]1[C@H]2CN(C(=O)OCc3cc(Cl)cc(Cl)c3)C[C@@H]12)c1ccc2[nH]c(=O)oc2c1 ) is 0.64

# hepatic extraction ratio at 1 µM (compound: N#Cc1cc(COC(=O)N2C[C@@H]3[C@@H](CNC(=O)c4ccc5[nH]nnc5c4)[C@@H]3C2)cc(C(=O)OC(F)(F)F)c1 ) is 0.28

###

- Assay overview: in vitro
- Measurement setup: human, Caco-2
- Description: Apparent permeability across apical to basolateral side in human Caco2 cells at 10 uM measured up to 90 mins
Reported property: Papp A→B at 1.5 h, 10 µM
Give the value; after it, write the unit.

| Compound | Papp A→B at 1.5 h, 10 µM |
| --- | --- |
| N#Cc1cc(COC(=O)N2C[C@@H]3[C@@H](CNC(=O)N4CCc5[nH]nnc5C4)[C@@H]3C2)cc(C(=O)OC(F)(F)F)c1 | 7 ×10⁻⁶ cm/s |
| CC(OC(=O)N1C[C@@H]2[C@@H](CNC(=O)c3ccc4[nH]c(=O)oc4c3)[C@@H]2C1)c1cc(Cl)cc(Cl)c1 (some centres undefined) | 118 ×10⁻⁶ cm/s |
| O=C(NC[C@@H]1[C@H]2CN(C(=O)OCc3cc(Cl)cc(Cl)c3)C[C@@H]12)c1ccc2[nH]c(=O)oc2c1 | 137 ×10⁻⁶ cm/s |

Please examine the following record next.
# Papp A→B at 1.5 h, 10 µM (compound: O=C(NC[C@@H]1[C@H]2CN(C(=O)OCc3cc(C(F)(F)F)cc(C(F)(F)F)c3)C[C@@H]12)c1ccc2[nH]nnc2c1 ) is 9 ×10⁻⁶ cm/s

###

- Assay overview: in vitro
- Measurement setup: human, Caco-2
Reported property: Papp A→B at 1.5 h, 10 µM (×10⁻⁶ cm/s)
Provide the reading as a plain figure in ×10⁻⁶ cm/s.

| Molecule | Unit info | Papp A→B at 1.5 h, 10 µM |
| --- | --- | --- |
| O=C(NC[C@@H]1[C@H]2CN(C(=O)/C=C/c3cc(Cl)cc(Cl)c3)C[C@@H]12)c1ccc2[nH]c(=O)oc2c1 | ×10⁻⁶ cm/s | 38 |
| O=C(NC[C@@H]1[C@H]2CN(C(=O)N3CCc4c(Cl)cc(Cl)cc4C3)C[C@@H]12)c1ccc2[nH]c(=O)oc2c1 | ×10⁻⁶ cm/s | 47 |
| O=C(NC[C@@H]1[C@H]2CN(C(=O)OCc3cc(C(F)(F)F)cc(C(F)(F)F)c3)C[C@@H]12)c1ccc2[nH]c(=O)oc2c1 | ×10⁻⁶ cm/s | 108 |
| Cc1ccc(COC(=O)N2C[C@@H]3[C@@H](CNC(=O)c4ccc5[nH]c(=O)oc5c4)[C@@H]3C2)nc1 | ×10⁻⁶ cm/s | 1 |
| N#Cc1cc(COC(=O)N2C[C@@H]3[C@@H](CNC(=O)c4ccc5[nH]nnc5c4)[C@@H]3C2)cc(C(=O)OC(F)(F)F)c1 | ×10⁻⁶ cm/s | 8 |
| Cc1cc(COC(=O)N2C[C@@H]3[C@@H](CNC(=O)c4ccc5[nH]c(=O)oc5c4)[C@@H]3C2)no1 | ×10⁻⁶ cm/s | 2 |

# Papp A→B at 1.5 h, 10 µM (molecule: O=C(NC[C@@H]1[C@H]2CN(C(=O)CCc3cc(Cl)cc(Cl)c3)C[C@@H]12)c1ccc2[nH]c(=O)oc2c1 ) is 18

# Papp A→B at 1.5 h, 10 µM (molecule: N#Cc1cc(COC(=O)N2C[C@@H]3[C@@H](CNC(=O)c4ccc5[nH]c(=O)oc5c4)[C@@H]3C2)cc(OC(F)(F)F)c1 ) is 44

# Papp A→B at 1.5 h, 10 µM (molecule: O=C(NC[C@@H]1[C@H]2CN(C(=O)C3CC3c3cc(Cl)cc(Cl)c3)C[C@@H]12)c1ccc2[nH]c(=O)oc2c1 (stereo not given in full) ) is 64

# Papp A→B at 1.5 h, 10 µM (molecule: O=C(NC[C@@H]1[C@H]2CN(C(=O)NCc3cc(Cl)cc(Cl)c3)C[C@@H]12)c1ccc2[nH]c(=O)oc2c1 ) is 2

###

- Assay overview: physchem
- Measurement setup: pH 4.5 buffer solution
- Description: Aqueous solubility of the compound in pH 4.5 buffer solution after 24 hrs by LC-UV analysis
Reported property: solubility at 24 h

# example entries with known answers
| Smiles data | Measurement |
| --- | --- |
| O=C(NC[C@@H]1[C@H]2CN(C(=O)/C=C/c3cc(Cl)cc(Cl)c3)C[C@@H]12)c1ccc2[nH]c(=O)oc2c1 | < 1 µg/mL |
| N#Cc1cc(COC(=O)N2C[C@@H]3[C@@H](CNC(=O)c4ccc5[nH]c(=O)oc5c4)[C@@H]3C2)cc(OC(F)(F)F)c1 | < 1 µg/mL |
| Cc1cc(COC(=O)N2C[C@@H]3[C@@H](CNC(=O)c4ccc5[nH]c(=O)oc5c4)[C@@H]3C2)no1 | > 93 µg/mL |

# solubility at 24 h (compound: O=C(NC[C@@H]1[C@H]2CN(C(=O)CCc3cc(Cl)cc(Cl)c3)C[C@@H]12)c1ccc2[nH]c(=O)oc2c1 ) is < 1 µg/mL

###

- Assay overview: physchem
- Measurement setup: pH 2.2 buffer solution
- Description: Aqueous solubility of the compound in pH 2.2 buffer solution after 24 hrs by LC-UV analysis
Reported property: solubility at 24 h

# example entries with known answers
| Compound | Reported property | Measurement |
| --- | --- | --- |
| Cc1ccc(COC(=O)N2C[C@@H]3[C@@H](CNC(=O)c4ccc5[nH]c(=O)oc5c4)[C@@H]3C2)nc1 | solubility at 24 h | > 92 µg/mL |
| CC(OC(=O)N1C[C@@H]2[C@@H](CNC(=O)c3ccc4[nH]c(=O)oc4c3)[C@@H]2C1)c1cc(Cl)cc(Cl)c1 (some centres not stated) | solubility at 24 h | < 1 µg/mL |
| O=C(NC[C@@H]1[C@H]2CN(C(=O)N3CCc4c(Cl)cc(Cl)cc4C3)C[C@@H]12)c1ccc2[nH]c(=O)oc2c1 | solubility at 24 h | < 1 µg/mL |
| N#Cc1cc(COC(=O)N2C[C@@H]3[C@@H](CNC(=O)N4CCc5[nH]nnc5C4)[C@@H]3C2)cc(C(=O)OC(F)(F)F)c1 | solubility at 24 h | 32 µg/mL |
| O=C(NC[C@@H]1[C@H]2CN(C(=O)NCc3cc(Cl)cc(Cl)c3)C[C@@H]12)c1ccc2[nH]c(=O)oc2c1 | solubility at 24 h | < 1 µg/mL |

# solubility at 24 h (compound: N#Cc1cc(COC(=O)N2C[C@@H]3[C@@H](CNC(=O)N4CCc5c(O)noc5C4)[C@@H]3C2)cc(C(=O)OC(F)(F)F)c1 ) is < 1 µg/mL

# solubility at 24 h (compound: O=C(NC[C@@H]1[C@H]2CN(C(=O)OCc3cc(C(F)(F)F)cc(C(F)(F)F)c3)C[C@@H]12)c1ccc2[nH]c(=O)oc2c1 ) is < 1 µg/mL

###

- Assay overview: physchem
- Measurement setup: pH 4.5 buffer solution
Reported property: solubility at 24 h

# example entries with known answers
| Compound | solubility at 24 h |
| --- | --- |
| N#Cc1cc(COC(=O)N2C[C@@H]3[C@@H](CNC(=O)N4CCc5[nH]nnc5C4)[C@@H]3C2)cc(C(=O)OC(F)(F)F)c1 | 26 µg/mL |
| O=C(NC[C@@H]1[C@H]2CN(C(=O)N3CCc4c(Cl)cc(Cl)cc4C3)C[C@@H]12)c1ccc2[nH]c(=O)oc2c1 | < 1 µg/mL |
| O=C(NC[C@@H]1[C@H]2CN(C(=O)OCc3cc(Cl)cc(Cl)c3)C[C@@H]12)c1ccc2[nH]c(=O)oc2c1 | < 1 µg/mL |

# solubility at 24 h (compound: CC(OC(=O)N1C[C@@H]2[C@@H](CNC(=O)c3ccc4[nH]c(=O)oc4c3)[C@@H]2C1)c1cc(Cl)cc(Cl)c1 (some centres undefined) ) is < 1 µg/mL
